Test: S. cerevisiae growth inhibition in restrictive medium, OD615, pilot screen, restrictive growth control, yeast lifespan reduction project (AID 706);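 note: modified DeaD lifespan yeast strain shifted to restrictive glucose medium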
Conditions: OD615, 48 h, at 10 µM, hits give high values
Activity calls are given as the source filed them.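 Rule for the calls: active = growth inhibition above a set limit, 3 SD over mean compound inhibition, in both replicates (cut at about 43% in these data); inconclusive = above the limit in only one replicate; inactive = at or below the limit in both replicates.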
READOUT NAME: growth inhibition

In [3]: df
Out[3]:
                                    compound       readout_name       result_value
 0  COc1cc(C(=O)N2CCN(c3cc(Cl)ccc3Cl)CC2)cc(OC)c1OC  growth inhibition  -8.44% (inactive)
 1         FC(F)Sc1ccc(Nc2ncnc3nc[nH]c23)cc1  growth inhibition     57.8% (active)
 2  O=C(NCc1cccs1)C(Cc1ccccc1)NS(=O)(=O)c1cccs1 (configuration not stated)  growth inhibition  -8.73% (inactive)
 3  O=C(COc1ccccc1)NCc1nnc(SCC(=O)Nc2nccs2)n1-c1ccccc1  growth inhibition  -4.89% (inactive)
 4  Cc1nc2ccccc2c2oc(C(=O)NCCCN3CCCC3=O)cc12  growth inhibition   -1.4% (inactive)
 5  Cn1c(=O)c2nnn(/N=C(\c3ccccc3)C3CC3)c2n(C)c1=O  growth inhibition    -15% (inactive)
 6    O=C(Cn1c(=O)[nH]c2ccsc2c1=O)NC1CCCCCC1  growth inhibition  -17.4% (inactive)
 7  O=C(NCCN1C(=O)C2C3C=CC(C3)C2C1=O)N1CCOCC1 (configuration not stated)  growth inhibition   8.98% (inactive)
 8                  O=C(NCCCN1CCOCC1)c1ccco1  growth inhibition  -3.09% (inactive)
 9                     O=C(Nc1cnccn1)c1cccs1  growth inhibition   1.52% (inactive)
10         COc1ccccc1N1CCN(C(=O)N2CCOCC2)CC1  growth inhibition  -6.65% (inactive)
11            COc1ccc(C(=O)n2nc(C)cc2C)cc1Br  growth inhibition  -1.95% (inactive)
